Tested on: TRPC4 (transient receptor potential cation channel C4 beta), mouse
PROTOCOL: potentiation of DAMGO EC20 TRPC4 response – cell-based, second round, Fluo-4, HEK293 TRPC4beta/mu-opioid, 1 µM, confirmation (AID 2554)
TEST CONDITIONS: DAMGO EC20, Fluo-4 calcium flux, at 1 µM
The source made the active and inactive calls.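 Rule for the calls: active = primary screen hit whose fluorescence ratio, in both repeats, exceeds the weak agonist control mean by 3 SD; inactive = the rest.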
Your response should consist of one outcome taken from TRUE (active), FALSE (inactive)

QUERY: What was the test verdict on CCN(CC)CCNc1ccc(Cl)cc1[N+](=O)[O-] ?
RESULT: TRUE

QUERY: Query O=C(NCCc1cnc[nH]1)c1ccc(-c2ccccc2)cc1 next
RESULT: FALSE

QUERY: Query CC(C)C(NC(=O)c1ccc(C(C)(C)C)cc1)C(=O)NCC(c1ccccc1)N(C)C (stereo not drawn) next
RESULT: FALSE

QUERY: Query COC(=O)c1ccc(Nc2cc(C)nc3ccccc23)cc1 next
RESULT: FALSE

QUERY: Query O=C1CC2(CCN(S(=O)(=O)c3ccccc3F)CC2)Oc2ccccc21 next
RESULT: FALSE

QUERY: Query Cc1ccccc1N1CC(O)(c2ccccc2)[N+]2=C1SCC2 (stereo not drawn) next
RESULT: FALSE

QUERY: Query CN(C)CCCCOc1cccc(Br)c1 next
RESULT: FALSE

QUERY: Query O=C(CCN1CCc2ccccc2C(O)(c2ccccc2)C1)c1ccc2c(c1)OCCO2 (stereo not drawn) next
RESULT: FALSE

QUERY: Query CCCn1ncc(CN2CCC(n3nccc3NC(=O)CCc3ccccc3)CC2)c1C next
RESULT: FALSE

QUERY: Query O=C(Nc1ccc(Oc2ccccc2)nc1)C1CCN(Cc2ccccc2)CC1 next
RESULT: FALSE

QUERY: Query CCN(CC)CCN(Cc1cc2cc3c(cc2[nH]c1=O)OCCO3)C(=O)NC1CCCCC1 next
RESULT: FALSE

QUERY: Query O=C(O)c1ccc(NC(=S)NC(=O)c2ccc(-c3ccccc3)cc2)cc1 next
RESULT: FALSE

QUERY: Query Oc1ccc(-c2csc(-c3ccccc3)n2)cc1O next
RESULT: FALSE

QUERY: Query CCCn1c(=N)n(CC(=O)C(C)(C)C)c2ccccc21 next
RESULT: FALSE

QUERY: Query O=C1c2ccccc2S(=O)(=O)c2cc(C(=O)N(c3ccccn3)c3ccccn3)ccc21 next
RESULT: FALSE

QUERY: Query Cc1ccc(Cl)cc1N1CCN(Cc2nc3c(c(=O)[nH]c(=O)n3C)n2Cc2ccccc2F)CC1 next
RESULT: FALSE

QUERY: Query O=C(CN1CCCCC1)N1c2ccccc2Oc2ccccc21 next
RESULT: FALSE

QUERY: Query CCCN(CCC)CCNC(=O)CCC(=O)Nc1ccc2nc(N3CCOCC3)cc(C)c2c1 next
RESULT: FALSE

QUERY: Query Cc1ccc(-c2nn(-c3cccc(F)c3)cc2CNCc2cccnc2)o1 next
RESULT: FALSE

QUERY: Query CSc1ccc(S(=O)(=O)NCC(=O)OCC(=O)N(C)Cc2ccccc2)cc1[N+](=O)[O-] next
RESULT: FALSE

QUERY: Query O=C(Nc1nnc2n1CCS2)c1ccc(Br)o1 next
RESULT: FALSE

QUERY: Query CC(C)C(=O)N1CCN(c2nc(-c3ccccc3)c3c(c2C#N)CCCC3)CC1 next
RESULT: FALSE

QUERY: Query Nc1c(C(=O)c2ccccc2)sc2nsc(SCCN3CCCC3)c12 next
RESULT: FALSE
